system: Hepatotoxicity; assay: FDA HLAED, gamma-glutamyl transferase (GGT) increase; conditions: human
Measured parameter: GGT Increase - Number of Reports

Compound: CC[C@H]1OC(=O)[C@H](C)[C@@H](O[C@H]2C[C@@](C)(OC)[C@@H](O)[C@H](C)O2)[C@H](C)[C@@H](O[C@@H]2O[C@H](C)C[C@H](N(C)C)[C@H]2O)[C@](C)(OC)C[C@@H](C)C(=O)[C@H](C)[C@@H](O)[C@]1(C)O [CLARITHROMYCIN]
Measured parameter: GGT Increase - Number of Reports
Reported measurement: >= 4
--
Compound: C=CC[N+]1([C@H]2C[C@H]3[C@@H]4CC[C@H]5C[C@H](O)[C@@H](N6CCOCC6)C[C@]5(C)[C@H]4CC[C@]3(C)[C@H]2OC(C)=O)CCCC1.[Br-] [ROCURONIUM BROMIDE]
Measured parameter: GGT Increase - Number of Reports
Reported measurement: < 4

###

The entries below come with measured SGOT Increase - Index Value values attached.
tested on: Hepatotoxicity; test: FDA HLAED, serum glutamic oxaloacetic transaminase (SGOT) increase; settings: human

Compound: C[C@@H]1C[C@H]2[C@@H]3CCC4=CC(=O)C=C[C@]4(C)[C@@]3(Cl)[C@@H](O)C[C@]2(C)[C@@]1(O)C(=O)CCl
SGOT Increase - Index Value: 0

Compound: COc1cc2nc(N3CCN(C(=O)C4COc5ccccc5O4)CC3)nc(N)c2cc1OC (stereo not drawn)
SGOT Increase - Index Value: 0.3

Compound: C[N+](C)(C)C[C@H](O)CC(=O)[O-]
SGOT Increase - Index Value: 0

Compound: O=C(O)COCCN1CCN(C(c2ccccc2)c2ccc(Cl)cc2)CC1 (stereo not drawn)
SGOT Increase - Index Value: 1

Compound: COCC1=C(C(=O)OC(C)OC(=O)OC(C)C)N2C(=O)[C@@H](NC(=O)/C(=N\OC)c3csc(N)n3)[C@H]2SC1 (stereo partly drawn)
SGOT Increase - Index Value: 1

Compound: CN(Cc1ccc(C(C)(C)C)cc1)Cc1cccc2ccccc12
SGOT Increase - Index Value: 0

Compound: COc1ccc(Cl)cc1C(=O)NCCc1ccc(S(=O)(=O)NC(=O)NC2CCCCC2)cc1 [GLYBURIDE]
SGOT Increase - Index Value: 1.8

Compound: CC(C)(C)c1ccc(C(O)CCCN2CCC(C(O)(c3ccccc3)c3ccccc3)CC2)cc1 (stereo not drawn)
SGOT Increase - Index Value: 0.7

###

tested on: Hepatotoxicity; test: FDA HLAED, liver enzyme composite activity; conditions: human
Measured parameter: Composite Activity - Active

Molecule: CCN[C@@H]1C[C@H](N)[C@@H](O[C@H]2OC(CN)=CC[C@H]2N)[C@H](O)[C@H]1O[C@H]1OC[C@](C)(O)[C@H](NC)[C@H]1O [NETILMICIN]
Reported measurement: 0
--
Molecule: Nc1ccn(C[C@@H](CO)OCP(=O)(O)O)c(=O)n1.O.O [CIDOFOVIR]
Reported measurement: 1
--
Molecule: CCCCC(=O)O[C@H]1CC[C@H]2[C@@H]3CCc4cc(O)ccc4[C@H]3CC[C@]12C [ESTRADIOL VALERATE]
Reported measurement: 0
--
Molecule: Nc1nnc(-c2cccc(Cl)c2Cl)c(N)n1 [LAMOTRIGINE]
Reported measurement: 2
--
Molecule: CC1(C)O[C@@H]2[C@@H](CO[C@@]3(COS(N)(=O)=O)OC(C)(C)O[C@@H]23)O1 [TOPIRAMATE]
Reported measurement: 0
--
Molecule: C[C@@H]1C[C@H]2[C@H]3[C@H]([C@@H](O)C[C@]2(C)[C@@]1(O)C(=O)CO)[C@@]1(C)C=CC(=O)C=C1C[C@H]3Cl [ALCLOMETASONE]
Reported measurement: 0
--
Molecule: CN(Cc1ccc(C(C)(C)C)cc1)Cc1cccc2ccccc12 [BUTENAFINE]
Reported measurement: 0

###

test system: Hepatotoxicity; experiment: FDA HLAED, gamma-glutamyl transferase (GGT) increase; conditions: human
The entries below come with measured GGT Increase - Index Value values attached.
Measured parameter: GGT Increase - Index Value

Molecule: CCC(=O)OCC(=O)[C@@]1(OC(=O)CC)[C@H](C)C[C@H]2[C@H]3[C@H]([C@@H](O)C[C@@]21C)[C@@]1(C)C=CC(=O)C=C1C[C@H]3Cl [ALCLOMETASONE DIPROPIONATE]
Reported measurement: 0

Molecule: Nc1nc(/C(=C/CC(=O)O)C(=O)N[C@@H]2C(=O)N3C(C(=O)O)=CCS[C@H]23)cs1
Reported measurement: 0

Molecule: OC(Cn1cncn1)(Cn1cncn1)c1ccc(F)cc1F
Reported measurement: 4.2

###

test system: Hepatotoxicity; experiment: FDA HLAED, serum glutamic oxaloacetic transaminase (SGOT) increase; conditions: human
Measured parameter: SGOT Increase - Number of Reports

Compound: Nc1nc(Cl)nc2c1ncn2[C@H]1C[C@H](O)[C@@H](CO)O1
Reported measurement: < 4
--
Compound: CC(=O)Nc1ccc(O)cc1
Reported measurement: >= 4
--
Compound: CC(=O)O[C@H]1C[C@@H]2CC[C@@H]3[C@H](CC[C@@]4(C)[C@H]3C[C@H]([N+]3(C)CCCCC3)[C@@H]4OC(C)=O)[C@@]2(C)C[C@@H]1N1CCCCC1.[Br-] [VECURONIUM BROMIDE]
Reported measurement: < 4
--
Compound: COCC1=C(C(=O)O)N2C(=O)[C@@H](NC(=O)/C(=N\OC)c3csc(N)n3)[C@H]2SC1
Reported measurement: >= 4
--
Compound: Cc1cccc(C)c1OCC(C)N (stereo not drawn)
Reported measurement: >= 4
--
Compound: O=C1NC(c2ccccc2)(c2ccccc2)C(=O)N1COP(=O)(O)O
Reported measurement: < 4
--
Compound: NCC(CC(=O)O)c1ccc(Cl)cc1 (stereo not drawn)
Reported measurement: >= 4
--
Compound: COC(=O)C1=C(C)NC(C)=C(C(=O)OCC(C)C)C1c1ccccc1[N+](=O)[O-] (stereo not drawn)
Reported measurement: < 4

###

test system: Hepatotoxicity; test: FDA HLAED, lactate dehydrogenase (LDH) increase; details: human
The entries below come with measured LDH Increase - Index Value values attached.
Measured parameter: LDH Increase - Index Value

Molecule: CC(C)NCC(O)COc1ccc(COCCOC(C)C)cc1 (stereo not drawn)
Target or system: Hepatotoxicity
Reported measurement: 0
--
Molecule: C[C@@H]1O[C@@H]1P(=O)(O)O
Target or system: Hepatotoxicity
Reported measurement: 0
--
Molecule: COc1cccc(C2(O)CCCCC2CN(C)C)c1 (stereo not drawn)
Target or system: Hepatotoxicity
Reported measurement: 0.6
--
Molecule: CC[C@H]1OC(=O)[C@H](C)[C@@H](O[C@H]2C[C@@](C)(OC)[C@@H](O)[C@H](C)O2)[C@H](C)[C@@H](O[C@@H]2O[C@H](C)C[C@H](N(C)C)[C@H]2O)[C@](C)(OC)C[C@@H](C)C(=O)[C@H](C)[C@@H](O)[C@]1(C)O
Target or system: Hepatotoxicity
Reported measurement: 1.4
--
Molecule: Nc1ccn([C@@H]2CS[C@H](CO)O2)c(=O)n1
Target or system: Hepatotoxicity
Reported measurement: 2.1
--
Molecule: CC=CC1=C(C(=O)O)N2C(=O)[C@@H](NC(=O)[C@H](N)c3ccc(O)cc3)[C@H]2SC1
Target or system: Hepatotoxicity
Reported measurement: 0.2
--
Molecule: OC(Cn1cncn1)(Cn1cncn1)c1ccc(F)cc1F
Target or system: Hepatotoxicity
Reported measurement: 3
--
Molecule: CC(=O)N1CCN(c2ccc(OCC3COC(Cn4ccnc4)(c4ccc(Cl)cc4Cl)O3)cc2)CC1 (stereo not drawn)
Target or system: Hepatotoxicity
Reported measurement: 2.7

###

tested on: Hepatotoxicity; experiment: FDA HLAED, serum glutamic pyruvic transaminase (SGPT) increase; settings: human

Molecule: Clc1cccc(Cl)c1N=C1NCCN1
SGPT Increase - Number of Reports: >= 4
//
Molecule: Cc1cc(CC(=O)O)n(C)c1C(=O)c1ccc(Cl)cc1 [ZOMEPIRAC]
SGPT Increase - Number of Reports: >= 4
//
Molecule: COc1ccc(CCN2CCC(Nc3nc4ccccc4n3Cc3ccc(F)cc3)CC2)cc1
SGPT Increase - Number of Reports: >= 4
//
Molecule: C[C@H]1[C@H](NC(=O)/C(=N\OC(C)(C)C(=O)O)c2csc(N)n2)C(=O)N1S(=O)(=O)O
SGPT Increase - Number of Reports: >= 4
//
Molecule: Nc1nc2c(ncn2CCC(CO)CO)c(=O)[nH]1
SGPT Increase - Number of Reports: < 4
//
Molecule: CC(=O)OCC(=O)[C@@]12OC3(CCCC3)O[C@@H]1C[C@H]1[C@@H]3CCC4=CC(=O)C=C[C@]4(C)[C@@]3(F)[C@@H](O)C[C@@]12C [AMCINONIDE]
SGPT Increase - Number of Reports: < 4
//
Molecule: O=C1c2c(O)ccc(O)c2C(=O)c2c(NCCNCCO)ccc(NCCNCCO)c21
SGPT Increase - Number of Reports: < 4
//
Molecule: CO/N=C(\C(=O)N[C@@H]1C(=O)N2C(C(=O)O)=C(COC(N)=O)CS[C@H]12)c1ccco1
SGPT Increase - Number of Reports: < 4
//
Molecule: CCOC(=O)CCC(=O)O[C@H]1[C@H](O[C@@H]2[C@@H](C)[C@H](O[C@H]3C[C@@](C)(OC)[C@@H](O)[C@H](C)O3)[C@@H](C)C(=O)O[C@H](CC)[C@@](C)(O)[C@H](O)[C@@H](C)C(=O)[C@H](C)C[C@@]2(C)O)O[C@H](C)C[C@@H]1N(C)C [ERYTHROMYCIN ETHYLSUCCINATE]
SGPT Increase - Number of Reports: >= 4
//
Molecule: CC(C)(O/N=C(\C(=O)N[C@@H]1C(=O)N2C(C(=O)[O-])=C(C[n+]3ccccc3)CS[C@H]12)c1csc(N)n1)C(=O)O
SGPT Increase - Number of Reports: < 4
//
Molecule: CCCCc1nc(Cl)c(CO)n1Cc1ccc(-c2ccccc2-c2nn[nH]n2)cc1
SGPT Increase - Number of Reports: >= 4
//
Molecule: O=C(O)COCCN1CCN(C(c2ccccc2)c2ccc(Cl)cc2)CC1 (stereo not given)
SGPT Increase - Number of Reports: >= 4
//
Molecule: CCOC(=O)Nc1ccc2c(c1)N(C(=O)CCN1CCOCC1)c1ccccc1S2
SGPT Increase - Number of Reports: < 4
//
Molecule: Cc1cn([C@H]2C[C@H](N=[N+]=[N-])[C@@H](CO)O2)c(=O)[nH]c1=O
SGPT Increase - Number of Reports: >= 4
//
Molecule: CCOC(=O)c1ccc(C#Cc2ccc3c(c2)C(C)(C)CCS3)nc1
SGPT Increase - Number of Reports: < 4

Each recorded value in this set is attributed to ChEMBL document CHEMBL1697781.
